Listed here: items and their measured EC50.
- EXPERIMENT NOTES: NF-kB promoter reporter activators, neuronal cells, dose response, cell-based, SH-SY5Y, luciferase (AID 1241)
- TEST PARAMETERS: fold induction

Guide cases for EC50, answers given:
CC(C)N=c1scc(-c2ccco2)n1/N=C/c1ccc(O)c(O)c1 :: 6.5 µM
CN(c1ccc(O)cc1)c1nc(-c2ccccc2)cs1 :: 1.02 µM
O=[N+]([O-])c1ccc(N/N=C/c2ccc[nH]2)cc1 :: 3.63 µM
CC(C(=O)O)c1ccc(N2Cc3ccccc3C2=O)cc1 (stereo not given) :: 1.52 µM

Now take the following compound into account.
Looking for the measured EC50 of Cc1ccc(-c2noc(-c3ccccc3Br)n2)cc1 , can you help?
1.83 µM
